protein stability index listing for selected variants.
B1: KLHL13 (parent)
chain: GVSKVGLRKIIDFIYTAKLSLNMD

- Variants of: B1
- Test name: protein stability index of a GFP-peptide fusion (GPS, HEK-293T) (PSI 1-6); higher = more stable;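 note: lentivirally expressed fusions sorted by FACS into six bins by GFP to DsRed ratio, PSI derived from sequencing read proportions per bin multiplied by bin number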
- Settings: c terminus: a fixed tail appended
Answer field: number only, no words.

Answered cases to consult:
Variant code: S3K
protein stability index: 2.31
//
Variant code: D24G
protein stability index: 3.65

Enquiry: Look up protein stability index for this variant: I10D
Return: 1.55

Enquiry: How about Y15M ?
Return: 2.48

Enquiry: How about S3H ?
Return: 3.22

Enquiry: How about I11Y ?
Return: 4.12
